Measurement notes: qHTS of pediatric cancer cell lines to identify multiple opportunities for drug repurposing: Primary screen for SK-N-MC cells (AID 1347093)
Stated conditions: SK-N-MC viability, CellTiter-Glo luminescence, 48 h; series mostly up to 46 µM
Results filed as inconclusive are left out. Active and inactive are the calls of the source. Calls follow the shape of the dose curve; as a rule, active = well fitted cell-killing curve with a large enough effect; inconclusive = small, poorly fitted or top-dose-only effect; inactive = no such curve, though single readings can be large or run the other way.
Classes used: 1.0 (active), 0.0 (inactive)

>>> assigned_class("CC(C)=CCNc1ncnc2c1ncn2[C@@H]1O[C@H](CO)[C@@H](O)[C@H]1O")
1.0
>>> assigned_class("CN1CCN(N)CC1")
0.0
>>> assigned_class("CO[C@]1(NC(=O)CSC(F)F)C(=O)N2C(C(=O)O)=C(CSc3nnnn3CCO)CO[C@H]21")
0.0
>>> assigned_class("Cc1ccc(O)cc1")
0.0
>>> assigned_class("COc1c(N2C[C@@H]3CCCN[C@@H]3C2)c(F)cc2c(=O)c(C(=O)O)cn(C3CC3)c12")
0.0
>>> assigned_class("CC(C)(C)NCC(O)COc1ccccc1OCC1CCCO1 (stereo unspecified)")
0.0
>>> assigned_class("O=C1CC[C@H](C(=O)N2CCCCC2)N1")
0.0
>>> assigned_class("CO/N=C(/C(=O)N[C@@H]1C(=O)N2C(C(=O)[O-])=C(C[n+]3ccn4ncccc43)CS[C@H]12)c1nsc(N)n1")
0.0
>>> assigned_class("CN(C(=O)C(Cl)Cl)c1ccc(OC(=O)c2ccco2)cc1")
0.0
>>> assigned_class("CCCCCCCCCCCC[N+](C)(C)Cc1ccccc1")
1.0
>>> assigned_class("COc1cc(C=O)ccc1O")
0.0

The origin of these recorded values is PubChem BioAssay (NCATS).
